- protocolNotes: qHTS for Inhibitors of Inflammasome Signaling: IL-1-beta AlphaLISA Primary Screen; also: % is scaled to controls: 0 for no effect and ±100 for the full control effect
- setupConditions: THP-1 LPS/ATP IL-1B secretion, 16 h; at 57.5 µM, active compounds read low
The whole screen tested about 360,000 compounds, of which about 17,000 (4.7%) were called active. Inconclusive results (about 5%) are left out. Only a selection was taken, and actives are over-represented in it overall.
measuredMetric: activity change (%)

>>> print(df.to_string())
                                    molecule   measuredmetric  endpointresult
 0  Cc1nn(-c2ccccc2)nc1C(=O)OCC(=O)N1CCCCC1C (stereo unspecified)  activity change              12
 1  CCCCn1c(-c2cccc(C)c2)nc2cc3[nH]c(=O)c(C(C)C)nc3cc21  activity change             -61
 2   CC1CCN(C(=O)c2ccccc2NC(=O)Cc2ccccc2)CC1  activity change            29.6
 3  C[C@@H]1CCCCO[C@H](CN(C)Cc2ccccc2)[C@@H](C)CN([C@H](C)CO)C(=O)c2cc(NS(=O)(=O)c3ccc(Cl)cc3)ccc2O1  activity change           -50.8
 4  O=C(OCc1ccccc1)N1CCC2CC1c1ccc(-c3ccc4c(c3)OCO4)cc12 (stereo unspecified)  activity change              20
 5  Cc1ccnc(NS(=O)(=O)c2ccc(NC(=O)c3oc4ccc(F)cc4c3C)cc2)n1  activity change            4.03
 6  COc1cccc(CNS(=O)(=O)c2ccc3c(c2)N(C(C)=O)CCS3)c1  activity change           -9.03
 7    CCCCCn1nnnc1-c1nc2cc3ccccc3cc2[nH]c1=O  activity change            1.49
 8      O=C(CSc1ncn[nH]1)Nc1nsc(-c2ccccc2)n1  activity change            10.9
 9  Cc1ccc(S(=O)(=O)Nc2ccc3c(c2)C(=O)N([C@H](C)CO)C[C@@H](C)[C@@H](CN(C)C(=O)Nc2cccc4ccccc24)O3)cc1  activity change           -20.3
10  CCCN(CCC)CC(O)COc1ccccc1C(=O)Nc1ccccc1 (stereo unspecified)  activity change           -6.43
11  C/C(CC1CC(C)(C)OC1=O)=N/Nc1nc(-c2ccccc2)cs1 (stereo unspecified)  activity change           -54.9
12  NS(=O)(=O)c1ccc(CNC(=O)c2cccc(S(=O)(=O)N3CCc4ccccc43)c2)cc1  activity change           -11.1
13          O=C(CSc1ncn[nH]1)Nc1ccnc2ccccc12  activity change              11
14       NS(=O)(=O)c1ccc(CNC(=O)c2cnccn2)cc1  activity change            2.67
15  CC(C)c1ccccc1OCC(O)CN(CC(O)COc1cccc2ccccc12)C(C)C (stereo unspecified)  activity change            -104
16  CCCOc1ccc(-c2c(C(=O)N/N=C/c3ccco3)nnn2-c2nonc2N)cc1  activity change            92.5
17  CCOC(=O)C1C(C)C(C(C)(C)C)N(S(=O)(=O)c2ccc(C)cc2)C1c1ccccc1 (stereo unspecified)  activity change           -15.7
18  CCOc1ccc(S(=O)(=O)N2CCN(C(=S)NCC3CCCO3)CC2)cc1 (stereo unspecified)  activity change            8.09
19      CCc1noc(C)c1C(=O)Nc1nc(-c2ccccc2)cs1  activity change            61.4
20  COc1ccc(S(=O)(=O)N2CCN(C(=S)NCC3CCCO3)CC2)cc1OC (stereo unspecified)  activity change            41.3
